- MEASUREMENT TARGET: Neutrophil elastase (Homo sapiens) (UniProt P08246)
- Sequence (P08246 whole entry): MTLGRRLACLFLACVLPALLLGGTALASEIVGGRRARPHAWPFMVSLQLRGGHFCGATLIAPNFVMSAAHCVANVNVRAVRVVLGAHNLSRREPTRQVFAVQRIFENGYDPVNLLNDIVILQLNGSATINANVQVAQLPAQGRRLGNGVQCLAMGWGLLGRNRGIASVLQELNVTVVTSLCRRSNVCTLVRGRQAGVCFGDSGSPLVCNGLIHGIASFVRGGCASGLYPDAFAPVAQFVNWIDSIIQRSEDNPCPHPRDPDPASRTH
- EXPERIMENTAL PROTOCOL: Inhibitory activity against human leukocyte elastase (HLE) expressed as second order inhibition rate constant
MEASURE: k on (M⁻¹ s⁻¹)

Solved cases (3 shown):
Q: Record request: k on value, item CO[C@H]1C(=O)N2c3c(coc3C(C)(C)C)[C@@H](C)S(=O)(=O)[C@H]12
A: 1000

Q: Record request: k on value, item CO[C@H]1C(=O)N2c3c(coc3C(C)(C)C)[C@]3(CC3(c3ccccc3)c3ccccc3)S(=O)(=O)[C@H]12
A: 8800

Q: Record request: k on value, item CO[C@H]1C(=O)N2c3c(coc3C(C)(C)C)CS(=O)(=O)[C@H]12
A: 500

I: CO[C@H]1C(=O)N2c3c(coc3-c3ccccc3)CS(=O)(=O)[C@H]12
II: CO[C@H]1C(=O)N2c3c(coc3C(C)(C)C)[C@@H](CC(=O)OC(C)(C)C)S(=O)(=O)[C@H]12
Q: In the pair I and II , the larger recorded k on belongs to which? Please respond with the label that marks your chosen entry.
A: I

---

- EXPERIMENTAL PROTOCOL: Hydrolytic stability at 37 degrees Celsius in 50 mM phosphate buffer (2 % v/v MeCN as solubilising vehicle) at pH 7.4
- Format: physicochemical
MEASURE: half-life (h)

Q: Record request: half-life value, item CO[C@H]1C(=O)N2c3c(coc3-c3ccccc3)CS(=O)(=O)[C@H]12
A: 71

1: CO[C@H]1C(=O)N2c3c(coc3C(C)(C)C)CS(=O)(=O)[C@H]12
2: CO[C@H]1C(=O)N2c3c(coc3C(C)(C)C)[C@]3(CC3(c3ccccc3)c3ccccc3)S(=O)(=O)[C@H]12
Q: Compare half-life: is it lower for 1 or for 2 ? Please respond with the label that marks your chosen entry.
A: 1

1: CO[C@H]1C(=O)N2C(C(=O)C(C)(C)C)=C(C)CS(=O)(=O)[C@H]12
2: CO[C@H]1C(=O)N2C(C(=O)c3ccccc3)=C(C)CS(=O)(=O)[C@H]12
Q: Compare half-life: is it lower for 1 or for 2 ? Please respond with the label that marks your chosen entry.
A: 2
